Tested on: 168753-222-R-J1-PDC complex spheroid viability;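 further: viability measured after seven days of drug exposure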
measurement-description: Anticancer human tumor 168753-222-R-J1-PDC patient-derived bladder carcinoma cell line growth inhibition [CLK]
condition-details: curve of first compound; second compound 0.316 µM
Excerpt: A high-throughput screen of multi-cell type tumor spheroids was designed to identify active combinations of […] and targeted small molecules. Complex spheroids include a stromal component modeled by human endothelial cells (HUVEC) and fibroblasts modeled by human mesenchymal stem cells (MSCs). […] Compounds. […] If the clinical Cmax for an agent had not been determined, the highest concentration tested was 10 microM. […]
measure: pIC50
# pIC50 is unitless: minus log10 of the molar concentration; print number only

1) C=C(F)C(=O)N1CCN(c2nc(OCC3CCCN3C)nc3c2CCN(c2cccc4cccc(Cl)c24)C3)CC1CC#N (stereo not given) + CNC(=O)c1ccc(Nc2nc(OC3CCCC3)c3c(-c4ccc5nc(C)oc5c4)c[nH]c3n2)c(OC)c1    5.09

Turning now to a further compound:
Ask: Entry under review: CC1(C)CCC(CN2CCN(c3ccc(C(=O)NS(=O)(=O)c4ccc(NCC5CCOCC5)c([N+](=O)[O-])c4)c(Oc4cnc5[nH]ccc5c4)c3)CC2)=C(c2ccc(Cl)cc2)C1 + CNC(=O)c1ccc(Nc2nc(OC3CCCC3)c3c(-c4ccc5nc(C)oc5c4)c[nH]c3n2)c(OC)c1 . Reported pIC50?
Result: 5.34
